B1: RSPH3 (parent)
chain: FIPAKTGKDVATQILEGELFDFDL

Variants of: B1
Assay comment: protein stability index of a GFP-peptide fusion (GPS, HEK-293T) (PSI 1-6); higher = more stable;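 further: lentivirally expressed fusions sorted by FACS into six bins by GFP to DsRed ratio, PSI derived from sequencing read proportions per bin multiplied by bin number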
Experimental parameters: c terminus: a fixed tail appended
Listed below: protein stability index values for each entry.
API doc: respond with a numeric literal and nothing else, no unit.

Consider the reported protein stability index for these variants:
>>> observed("E18Y")
1.59
>>> observed("I14E")
2.09
>>> observed("A4F")
2.33
>>> observed("K8R")
2.37
>>> observed("P3N")
2.24

Task item: Param item = `V10L` ; retrieve measured protein stability index.
Reply: 2.63

Task item: And the next one, `F22H` ?
Reply: 2.56

Task item: And the next one, `L15V` ?
Reply: 1.94

Task item: And the next one, `D9V` ?
Reply: 2.29

Task item: And the next one, `F20V` ?
Reply: 2.71

Task item: And the next one, `D21L` ?
Reply: 3

Task item: And the next one, `K8I` ?
Reply: 1.74
